- Test system: Plasmodium falciparum
- measurement_notes: GSK_TCMDC: Inhibition of Plasmodium falciparum 3D7 in whole erythrocytes, using parasite LDH activity as an index of growth.
- Assay type: functional, organism-based
- condition_notes: Plasmodium falciparum, 3D7
result_type: log10 of XC50 (log10 of the value in nM)
Lab note - XC50 converted to log10 from values in nM.

In [3]: df
Out[3]:
                                   compound  data_value
0  O=C(/C=C/c1ccc(Cl)c(Cl)c1)NCCCCCN1CCC(NC(=O)c2ccc3ccccc3c2)CC1        3.01
1  CCC(C)NS(=O)(=O)c1ccc2nc(Nc3ccc(C)c(Cl)c3)n(C(C)C(C)C)c2c1 (centres undefined)        2.57
2  O=C(Nc1cccc(-c2nc3ccccc3[nH]2)c1)c1ccc(-c2cccc([N+](=O)[O-])c2)o1        2.18
3  Cc1c(C)n(C2CCCCC2)c2ncnc(OC3CCN(CC(=O)NC4CC4)CC3)c12        3.09
4    CC(C)(C)c1ccc(N2C(N)=NC(N)=NC2(C)C)cc1        1.43
5  CN(C)CCCOc1ccc(CCCCc2ccc(Cl)cc2C(=O)c2ccccc2)cc1        3.01
6  COC(=O)c1ccc(CC(C)NCC(O)c2cccc(I)c2)cc1 (centres undefined)        3.12
7  O=C(Nc1ccc(Oc2ccccc2)cc1)N[C@H]1CCN(Cc2ccc(OCCCN3CCCCC3)cc2)C1        2.25

Turning now to a further record.
Q) log10 of XC50 for `Cc1cccc(-c2nc(Nc3ccncc3)c3ccc([N+](=O)[O-])cc3n2)n1` ?
A) 2.92

* * *

In this section we review reported XC50 values for a set of molecules.
- Tested on: Plasmodium falciparum
- measurement_notes: GSK_TCMDC: Inhibition of Plasmodium falciparum 3D7 in whole erythrocytes, using parasite LDH activity as an index of growth.
- Type: functional, organism-based
- condition_notes: Plasmodium falciparum, 3D7
The reply should be a number in nM, with the unit left off.

Record excerpt, results attached:
>>> df
                                   molecule  measure_unit  data_value
0      c1csc(-c2nc(N3CCCCC3)ncc2-c2ccsc2)n1            nM         136
1  Cc1cccc2nc(-c3cccc(-c4ccc(NC(=O)CCc5c[nH]cn5)cc4)c3)[nH]c12            nM         302
2  O=c1cc(NCCCNCc2ccc(C(F)(F)F)cc2F)[nH]c2ccccc12            nM         956

Q) XC50 for `COc1ccc2nccc([C@@H](O)CN3CCC(NCc4ccc5nnsc5c4)CC3)c2c1` ?
A) 714

Q) XC50 for CCC1(C)N=C(N)N=C(N)N1c1ccccc1 (stereo not given) ?
A) 792

Q) XC50 for `NC(=O)c1ccc(C(=O)Nc2cccc(-c3csc(-c4nc5ccccc5[nH]4)c3)c2)cc1` ?
A) 351

Q) XC50 for CNC(=O)C(C)N(c1ccc(Cl)cc1)c1nc(C(C)(C)C)cs1 (stereo not given) ?
A) 741

Q) XC50 for COc1cc(NC(=O)N2CCOC(CCN3CCC4(CCc5ccccc54)CC3)(c3ccc(Cl)c(Cl)c3)C2)cc(OC)c1OC (stereo not given) ?
A) 156

Q) XC50 for `O=C(Nc1cccc(-c2nc3ccccc3s2)c1)c1ccccc1[N+](=O)[O-]` ?
A) 767

Q) XC50 for `O=C(NCCN1CCCCC1)c1cccc(Nc2nccc(Nc3ccc(Oc4ccccc4)cc3)n2)c1` ?
A) 273

Q) XC50 for `O=S(=O)(Nc1cccc(CCN2CCC(N3CCCCC3)CC2)c1)c1ccccc1C(F)(F)F` ?
A) 1150

* * *

In this section we review reported log10 of XC50 values for a set of compounds.
- System: Plasmodium falciparum
- measurement_notes: GSK_TCMDC: Inhibition of Plasmodium falciparum 3D7 in whole erythrocytes, using parasite LDH activity as an index of growth.
- Assay type: functional, organism-based
- condition_notes: Plasmodium falciparum, 3D7
Lab note - XC50 converted to log10 from values in nM.

Record excerpt, results attached:
In [3]: df
Out[3]:
                                   compound         assayed_system    result_type  data_value
0  O=C(Nc1cccc(CN2CCN(C(=O)c3cccc(Cl)c3)CC2)c1)c1cccs1  Plasmodium falciparum  log10 of XC50        2.26
1  CC(=O)Nc1ccc(OCCN(Cc2ccccc2OC(F)(F)F)c2ccc(C(F)(F)F)c(C#N)c2)c(Cl)c1  Plasmodium falciparum  log10 of XC50        2.66
2     CC1(C)N=C(N)N=C(N)N1OCc1ccc2c(c1)OCO2  Plasmodium falciparum  log10 of XC50        0.57
3  CCCc1nc2c(N3CC(NC(=O)/C=C/c4ccccc4)C3)cccc2n1C1CC1  Plasmodium falciparum  log10 of XC50        2.74

Q) Lab note: need log10 of XC50 with Plasmodium falciparum for entry c1cc(CNC2Cc3ccc(-c4cccs4)cc3C2)cc(-n2ccnc2)c1 (centres undefined) , please look it up.
A) 2.77

Q) Lab note: need log10 of XC50 with Plasmodium falciparum for entry `COCCn1c(Sc2ncnc3sccc23)nc2ccccc21` , please look it up.
A) 2.94

Q) Lab note: need log10 of XC50 with Plasmodium falciparum for entry `CC(C)CN(C)Cc1ccc(-c2ccc(-c3nc4ccccc4[nH]3)s2)cc1` , please look it up.
A) 2.88

Q) Lab note: need log10 of XC50 with Plasmodium falciparum for entry O=[N+]([O-])c1cccc(-c2nc3cc(C4=NC5CCCCC5N4)ccc3[nH]2)c1 (centres undefined) , please look it up.
A) 2.29

Q) Lab note: need log10 of XC50 with Plasmodium falciparum for entry `CC(C)(C)c1ccc(NC(=O)c2cccc(CN3CCCN(Cc4ccc(F)cc4)CC3)c2)cc1` , please look it up.
A) 3.00

Q) Lab note: need log10 of XC50 with Plasmodium falciparum for entry `COc1cc2nc(NCCn3nc(C)cc3C)nc(NCCc3ccccc3)c2cc1OC` , please look it up.
A) 2.64

Q) Lab note: need log10 of XC50 with Plasmodium falciparum for entry `CCNc1cc(C(=O)N[C@@H](Cc2ccccc2)[C@H](O)CNC2(Cc3cccc(Cl)c3)CCC2)cc(N2CCCCS2(=O)=O)c1` , please look it up.
A) 3.07

Q) Lab note: need log10 of XC50 with Plasmodium falciparum for entry `CC[C@H]1CN2CC[C@H]1C[C@H]2[C@H](O)c1cc(-c2ccccc2C(F)(F)F)nc2ccc(OC)cc12` , please look it up.
A) 2.37

Q) Lab note: need log10 of XC50 with Plasmodium falciparum for entry `COc1cc2nc(N(C)C)nc(Nc3ccc4c(cnn4Cc4ccccc4)c3)c2cc1OC` , please look it up.
A) 1.64

* * *

In this section we review reported XC50 values for a set of compounds.
- Tested on: Plasmodium falciparum
- measurement_notes: GSK_TCMDC: Inhibition of Plasmodium falciparum 3D7 in whole erythrocytes, using parasite LDH activity as an index of growth.
- Type: functional, organism-based
- condition_notes: Plasmodium falciparum, 3D7

Record excerpt, results attached:
In [3]: df
Out[3]:
                                   compound  data_value
0  O=C(Nc1nc2cc(S(=O)(=O)NCCc3cccc(F)c3)ccc2n1CCCn1ccnc1)c1ccc(Cl)cc1     1270 nM
1  NC1CCN(Cc2cccc(-c3cccc(-c4nc5ccccc5[nH]4)c3)c2)C1 (stereo not given)      790 nM

Q) XC50 for Cc1ccnc(NC(c2ccc(Cl)c([N+](=O)[O-])c2)c2ccc3cccnc3c2O)c1 (stereo not given) ?
A) 927 nM

Q) XC50 for `CCN(CC)CCON=Cc1cc(C)c2[nH]c3ccc(OCc4ccccc4)cc3c2c1C` ?
A) 972 nM

Q) XC50 for `CCN(CC)CCN(Cc1ccc(-c2ccc(C(F)(F)F)cc2)cc1)C(=O)Cn1c(CCc2cccc(F)c2F)nc(=O)c2sccc21` ?
A) 905 nM

* * *

- System: Plasmodium falciparum
- measurement_notes: GSK_TCMDC: Inhibition of Plasmodium falciparum 3D7 in whole erythrocytes, using parasite LDH activity as an index of growth.
- Format: functional, organism-based
- condition_notes: Plasmodium falciparum, 3D7
Recorded XC50 determines the group label, using bottom range (below 600 nM), center range (600 nM to below 800 nM), top range (800 nM or more)

>>> print(df.to_string())
                                   compound  qualitative_label
0  O=C(Nc1ccc(N2CCCN(Cc3cccc(F)c3)CC2)cc1)c1ccc(F)cc1          top range
1  CN1C(=C2SC(=Nc3ccc4ncccc4c3)N(Cc3ccccc3)C2=O)Sc2ccc(Cl)cc21          top range
2  Cc1cc(N(C)C)nc(Nc2ccc(NC(=O)c3ccccc3Cl)cc2)n1          top range

Here is another compound to look at.
Q) Hi, small favor: classify `CCNc1cc(C)nc(Nc2ccc(NC(=O)c3c(F)cccc3Cl)cc2)n1` by its XC50 when you get a moment.
A) top range
